Origin of values: patent US20190315823A1

List of % Biofilm inhibition values.
system: methicillin resistant Staphylococcus aureus (MRSA) biofilm; details: approximate peptide concentration […] (around 3 μg/ml); compared to untreated samples
Ends that are not written are not given here.
Report the value in % with no unit label.

# substance, target, % Biofilm inhibition [%]
records = [
    ("1018-I8: single substituted 1018 peptide (VRLIVAVIIWRR-NH2) [Peptide 1018-I8]", "methicillin resistant Staphylococcus aureus (MRSA) biofilm", 39),
    ("HH2-L7: single substituted HH2 peptide (VQLRIRLAVIRA-NH2)", "methicillin resistant Staphylococcus aureus (MRSA) biofilm", 68),
    ("1002-I4: single substituted 1002 peptide (VQRILIVWRIRK-NH2) [Peptide 1002-I4]", "methicillin resistant Staphylococcus aureus (MRSA) biofilm", 62),
]

// field: % Biofilm inhibition; key: 1018-W7: single substituted 1018 peptide (VRLIVAWRIWRR-NH2) [Peptide 1018-W7] ; value = 55

====

tested on: human peripheral blood mononuclear cells (MCP-1); test: SPOT-synthesized derivative screen: production of chemokine MCP-1; assay type: cell-based; conditions: Table 12A; No LPS
Peptide text beside a SMILES is read from it.
quantityName: Fold increase in MCP1 cf. untreated cells
Number, no unit, nothing else.

Example entries and their recorded answers appear below.
# compound, recordedNumber
data = [
    ("CC[C@H](C)[C@H](NC(=O)[C@H](CCCNC(=N)N)NC(=O)[C@@H](NC(=O)[C@H](CCCCN)NC(=O)[C@@H](NC(=O)[C@@H](NC(=O)[C@H](CC(C)C)NC(=O)[C@H](CCCNC(=N)N)NC(=O)[C@@H](N)CCCNC(=N)N)[C@@H](C)CC)C(C)C)C(C)C)C(=O)N[C@@H](Cc1c[nH]c2ccccc12)C(=O)N[C@@H](CCCNC(=N)N)C(=O)N[C@@H](CCCNC(=N)N)C(N)=O [Peptide 2007] (H-RRLIVKVRIWRR-NH2; N-terminus assumed)", 386),
    ("CC[C@H](C)[C@H](NC(=O)[C@H](CCCNC(=N)N)NC(=O)[C@H](Cc1c[nH]c2ccccc12)NC(=O)[C@H](CCCNC(=N)N)NC(=O)[C@@H](NC(=O)[C@H](CC(C)C)NC(=O)[C@H](CC(C)C)NC(=O)[C@H](CCCNC(=N)N)NC(=O)[C@H](Cc1c[nH]c2ccccc12)NC(=O)[C@@H](N)CCCCN)[C@@H](C)CC)C(=O)N[C@@H](CCC(N)=O)C(=O)N[C@@H](CCCCN)C(N)=O [Peptide 2009] (H-KWRLLIRWRIQK-NH2; N-terminus assumed)", 586),
    ("CC[C@H](C)[C@H](NC(=O)[C@H](CCCNC(=N)N)NC(=O)[C@H](Cc1c[nH]c2ccccc12)NC(=O)[C@H](CCCNC(=N)N)NC(=O)[C@@H](NC(=O)[C@H](CC(C)C)NC(=O)[C@H](Cc1c[nH]c2ccccc12)NC(=O)[C@H](CCCNC(=N)N)NC(=O)[C@H](CCC(N)=O)NC(=O)[C@@H](N)CCCCN)[C@@H](C)CC)C(=O)N[C@@H](CCCNC(=N)N)C(=O)N[C@@H](CCCCN)C(N)=O [Peptide 2010] (H-KQRWLIRWRIRK-NH2; N-terminus assumed)", 266),
    ("CC[C@H](C)[C@H](NC(=O)[C@H](CCCNC(=N)N)NC(=O)[C@H](CC(C)C)NC(=O)[C@H](CCC(N)=O)NC(=O)[C@@H](N)Cc1c[nH]c2ccccc12)C(=O)N[C@@H](CCCNC(=N)N)C(=O)N[C@H](C(=O)N[C@@H](CCCCN)C(=O)N[C@H](C(=O)N[C@H](C(=O)N[C@@H](CCCNC(=N)N)C(=O)N[C@@H](CCCCN)C(N)=O)[C@@H](C)CC)C(C)C)C(C)C [Peptide 2012] (H-WQLRIRVKVIRK-NH2; N-terminus assumed)", 227),
]

Fold increase in MCP1 cf. untreated cells reported for this compound CC[C@H](C)[C@H](NC(=O)[C@H](CCCNC(=N)N)NC(=O)[C@@H](NC(=O)[C@H](CCCCN)NC(=O)[C@@H](NC(=O)[C@@H](NC(=O)[C@H](CC(C)C)NC(=O)[C@H](CCCNC(=N)N)NC(=O)[C@@H](N)C(C)C)[C@@H](C)CC)C(C)C)C(C)C)C(=O)N[C@@H](CCCNC(=N)N)C(=O)N[C@@H](CCCNC(=N)N)C(=O)N[C@@H](CCCNC(=N)N)C(N)=O [Peptide 2003] (H-VRLIVKVRIRRR-NH2; N-terminus assumed) : 509

get_value(item= CC[C@H](C)[C@H](NC(=O)[C@H](CCCNC(=N)N)NC(=O)[C@H](CC(C)C)NC(=O)[C@H](CCC(N)=O)NC(=O)[C@@H](N)C(C)C)C(=O)N[C@@H](CCCNC(=N)N)C(=O)N[C@H](C(=O)N[C@@H](C)C(=O)N[C@H](C(=O)N[C@H](C(=O)N[C@@H](CCCNC(=N)N)C(=O)N[C@@H](C)C(N)=O)[C@@H](C)CC)C(C)C)C(C)C [HH2] (H-VQLRIRVAVIRA-NH2; N-terminus assumed) , readout=Fold increase in MCP1 cf. untreated cells) returns 43

CC[C@H](C)[C@H](NC(=O)[C@H](CCCNC(=N)N)NC(=O)[C@H](CC(C)C)NC(=O)[C@H](CCC(N)=O)NC(=O)[C@@H](N)C(C)C)C(=O)N[C@@H](CCCNC(=N)N)C(=O)N[C@H](C(=O)N[C@@H](CCCCN)C(=O)N[C@H](C(=O)N[C@H](C(=O)N[C@@H](CCCNC(=N)N)C(=O)N[C@@H](CCCCN)C(N)=O)[C@@H](C)CC)C(C)C)C(C)C [Peptide 2011] (H-VQLRIRVKVIRK-NH2; N-terminus assumed) yielded Fold increase in MCP1 cf. untreated cells of 38

Recorded Fold increase in MCP1 cf. untreated cells (compound CC[C@H](C)[C@H](NC(=O)[C@H](CCCNC(=N)N)NC(=O)[C@H](Cc1c[nH]c2ccccc12)NC(=O)[C@@H](NC(=O)[C@@H](NC(=O)[C@H](CC(C)C)NC(=O)[C@H](Cc1c[nH]c2ccccc12)NC(=O)[C@H](CCCNC(=N)N)NC(=O)[C@H](CCC(N)=O)NC(=O)[C@@H](N)C(C)C)[C@@H](C)CC)C(C)C)C(=O)N[C@@H](CCCNC(=N)N)C(=O)N[C@@H](CCCCN)C(N)=O [Peptide 1002] (H-VQRWLIVWRIRK-NH2; N-terminus assumed) ): 576

According to the records, this compound CC[C@H](C)[C@H](NC(=O)[C@H](CCCNC(=N)N)NC(=O)[C@@H](NC(=O)[C@H](CCCCN)NC(=O)[C@@H](NC(=O)[C@@H](NC(=O)[C@H](Cc1c[nH]c2ccccc12)NC(=O)[C@H](CCCNC(=N)N)NC(=O)[C@@H](N)C(C)C)[C@@H](C)CC)C(C)C)C(C)C)C(=O)N[C@@H](CCCNC(=N)N)C(=O)N[C@@H](CCCNC(=N)N)C(=O)N[C@@H](CCCNC(=N)N)C(N)=O [Peptide 2006] (H-VRWIVKVRIRRR-NH2; N-terminus assumed) displays Fold increase in MCP1 cf. untreated cells of 316

====

Overview of reported MBIC50 S. aureus across a group of compounds:
test system: S. aureus biofilm; assay type: cell-based; conditions: concentration that reduced biofilm growth by 50%
Peptide text beside a SMILES is read from it.
Respond with the bare value in µg/mL.

Consider the reported MBIC50 S. aureus for these compounds:
# compound, resultUnit, recordedNumber
records = [
    ("CC[C@H](C)[C@H](NC(=O)[C@H](CCCNC(=N)N)NC(=O)[C@@H](NC(=O)[C@H](C)NC(=O)[C@@H](NC(=O)[C@@H](NC(=O)[C@H](CC(C)C)NC(=O)[C@H](CCCNC(=N)N)NC(=O)[C@@H](N)C(C)C)[C@@H](C)CC)C(C)C)C(C)C)C(=O)N[C@@H](Cc1c[nH]c2ccccc12)C(=O)N[C@@H](CCCNC(=N)N)C(=O)N[C@@H](CCCNC(=N)N)C(N)=O [Peptide 1018] (H-VRLIVAVRIWRR-NH2)", "µg/mL", 20),
    ("CC[C@H](C)[C@H](NC(=O)[C@H](CCCNC(=N)N)NC(=O)[C@@H](NC(=O)[C@H](C)NC(=O)[C@@H](NC(=O)[C@@H](NC(=O)[C@H](CC(C)C)NC(=O)[C@H](CCCNC(=N)N)NC(=O)[C@@H](N)C(C)C)[C@@H](C)CC)C(C)C)C(C)C)C(=O)N[C@@H](CCCNC(=N)N)C(=O)N[C@@H](CCCNC(=N)N)C(=O)N[C@@H](CCCNC(=N)N)C(N)=O [Peptide 2002] (H-VRLIVAVRIRRR-NH2; N-terminus assumed)", "µg/mL", 20),
]

Item CC[C@H](C)[C@H](NC(=O)[C@H](CCCNC(=N)N)NC(=O)[C@@H](NC(=O)[C@H](CCCCN)NC(=O)[C@@H](NC(=O)[C@@H](NC(=O)[C@H](Cc1c[nH]c2ccccc12)NC(=O)[C@H](CCCNC(=N)N)NC(=O)[C@@H](N)C(C)C)[C@@H](C)CC)C(C)C)C(C)C)C(=O)N[C@@H](CCCNC(=N)N)C(=O)N[C@@H](CCCNC(=N)N)C(=O)N[C@@H](CCCNC(=N)N)C(N)=O [Peptide 2006] (H-VRWIVKVRIRRR-NH2; N-terminus assumed) was tested on S. aureus biofilm; the reported MBIC50 S. aureus is 10
